testedTarget: T1, human W3785-hProl.ECD.His (Human-TNFR2-His) protein (human, UniProt P20333 23-257)
T1 construct: extracellular domain; not shown: His tag
T1 sequence (looked up): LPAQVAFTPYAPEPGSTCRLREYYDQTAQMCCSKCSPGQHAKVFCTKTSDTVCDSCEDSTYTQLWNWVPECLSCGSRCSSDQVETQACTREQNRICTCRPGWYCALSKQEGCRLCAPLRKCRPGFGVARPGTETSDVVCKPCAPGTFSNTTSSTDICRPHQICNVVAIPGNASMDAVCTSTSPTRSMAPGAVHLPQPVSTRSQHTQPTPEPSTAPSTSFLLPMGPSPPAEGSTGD
methodDescription: BLI (Octet Red96e), antibody on AHC sensor, Human-TNFR2-His in solution, multiple concentrations
The following binders are listed with their measured kon values.

| binder | quantityUnit | kon |
| --- | --- | --- |
| Antibody 16 (antibody, V domains shown, detected with anti-human IgG and captured on AHC sensors) VH: QVQLVQSGAEVKKPGASVKVSCKASGYTFTDYIIHWVRQAPGQGLEWMGWIDPDYGNTDYADKFKKRVTMTADTSISTAFMELSRLRSDDTAVYYCARDEGSPLVMDAWGQGTLVTVSS VL: DIQMTQSPSSLSASVGDRVTITCNGSQNIDNYLAWFQQKPGKAPKLLIYSTYSLQTGVPSRFSGSRSGTDFTLTISSLQPEDFATYFCFQYNNGYMFGGGTKLELK | M⁻¹ s⁻¹ | 1.15e+06 |
| Antibody 10-xIgG1K (antibody, V domains shown, Rat-human chimeric antibody, human IgG1 kappa) VH: EVQLVETGGGLVQPGKSLKLTCATSGFTFSNAWMGWVRQSPEKQLEWVAQIKDKSNNYPTYYAESVKGRFTISRDDSESSVYLQMNSLKEEDTAIYYCTGYGDFFDYWGQGVVVTVSS VL: DIQMTQSPASLSASLGETVTIECRASEDIYNGLAWYQQKPGNSPRLLIFNANSLHTGVPSRFSGSGSGTQYSLKINSLQSEDVASYFCQQYYDHPLTFGSGIKLEIKR | M⁻¹ s⁻¹ | 813000 |
| Antibody 28 (antibody, V domains shown, captured on AHC sensors) VH: EVQLVQSGAEVKKPGATVKISCKVSGYSITDYLLHWVQQAPGKGLEWMGWIDPEDAKTKYGQKFQSRVTITADTSTDTAYMELSSLRSEDTAVYYCAANSATGTMDAWGQGTLVTVSS VL: DIVMTQSPATLSVSPGERATLSCKASQNVGSNVDWYQQKPGQSPRVLIYKASIRYTGIPARFSGSGSGTEFTLTISILQSEDFAVYFCMQSKSYPITFGQGTKLEIK | M⁻¹ s⁻¹ | 225000 |
| Antibody 17 (antibody, V domains shown, detected with anti-human IgG and captured on AHC sensors) VH: QVQLVQSGAEVKKPGASVKVSCKASGYTFTDYIIHWVRQAPGQGLEWMGWIDPDYGNTDYADKFKKRVTMTADTSISTAFMELSRLRSDDTAVYYCARDEGSPLVMDAWGQGTLVTVSS VL: DIQMTQSPSSLSASVGDRVTITCQGSQNIDNYLAWFQQKPGKAPKLLIYSTYSLQTGVPSRFSGSRSGTDFTLTISSLQPEDFATYFCFQYNNGYMFGGGTKLELK | M⁻¹ s⁻¹ | 933000 |
| Antibody 23 (antibody, V domains shown, captured on AHC sensors) VH: EVQLVQSGAEVKKPGATVKISCKVSGYSITDYLLHWVQQAPGKGLEWMGWIDPEEGKTKYGQKFQSRVTITADTSTDTAYMELSSLRSEDTAVYYCAANSGTGTMDAWGQGTLVTVSS VL: DIVMTQSPATLSVSPGERATLSCKASQNVGSNVDWYQQKPGQSPRVLIYKASIRYTGIPARFSGSGSGTEFTLTISILQSEDFAVYFCMQSKSYPITFGQGTKLEIK | M⁻¹ s⁻¹ | 484000 |
